Reported values of OD450 for individual entries
# Target system: T1, human MSLN-R1-his protein (human, UniProt Q13421 296-390)
# T1 construct: Region 1 of human mesothelin, made in HEK293E cells, His-tagged; also called human MSLN-R1 protein; hMSLN-R1-his; not shown: His tag
# T1 chain: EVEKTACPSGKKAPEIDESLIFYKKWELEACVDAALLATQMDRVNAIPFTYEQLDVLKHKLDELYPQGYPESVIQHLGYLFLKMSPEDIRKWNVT
# Test details: ELISA on coated MSLN-R1; antibody 100 nM

[
  {
    "Binder": "S009-F8-28.23 (antibody, human IgG1, kappa, V domains shown) VH: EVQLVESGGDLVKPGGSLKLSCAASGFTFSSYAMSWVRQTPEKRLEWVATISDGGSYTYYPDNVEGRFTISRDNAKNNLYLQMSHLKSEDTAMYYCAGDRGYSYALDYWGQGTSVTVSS VL: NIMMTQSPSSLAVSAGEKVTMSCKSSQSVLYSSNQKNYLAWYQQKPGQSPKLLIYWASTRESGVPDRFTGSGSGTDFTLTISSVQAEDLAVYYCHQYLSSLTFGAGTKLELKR",
    "Recorded measurement": "0.05 OD450"
  },
  {
    "Binder": "S009-F8-24.14 (antibody, human IgG1, kappa, V domains shown) VH: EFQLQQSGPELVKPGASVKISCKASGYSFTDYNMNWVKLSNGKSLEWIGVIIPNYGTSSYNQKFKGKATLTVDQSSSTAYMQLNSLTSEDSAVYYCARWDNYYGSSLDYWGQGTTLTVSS VL: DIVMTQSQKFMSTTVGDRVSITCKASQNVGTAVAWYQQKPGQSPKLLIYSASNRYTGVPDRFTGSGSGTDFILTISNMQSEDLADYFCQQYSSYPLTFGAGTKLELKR",
    "Recorded measurement": "2.34 OD450"
  }
]

Shift focus to the following entry.
QUERY: Value lookup for OD450; key = S009-F8-29.1 (antibody, human IgG1, kappa, V domains shown) VH: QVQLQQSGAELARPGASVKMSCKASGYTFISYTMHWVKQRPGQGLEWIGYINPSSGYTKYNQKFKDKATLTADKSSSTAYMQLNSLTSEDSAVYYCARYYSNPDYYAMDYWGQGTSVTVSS VL: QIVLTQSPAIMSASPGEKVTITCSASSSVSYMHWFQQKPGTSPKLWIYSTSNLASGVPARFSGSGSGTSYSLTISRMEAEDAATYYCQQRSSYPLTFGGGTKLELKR
RESULT: 0.05 OD450
